# TARGET ENTITY: PI3K β (Homo sapiens)
# MEASUREMENT PROTOCOL: PI 3-Kinase (human) HTRF assay, PI3K β
# ASSAY CONTEXT: read-out: PI3K β IC50; Table 4
pIC50: −log10 of the molar value.
pIC50: recorded values

>>> experimental_result("Cc1nccn1C1CN(c2cnc3ccc(-c4ccc5oc(N)nc5c4)nc3c2)C1")
"> 5.00"
>>> experimental_result("Nc1nc2cc(-c3ccc4ncc(N5CC(N6CCN(C7CC7)CC6)C5)nc4n3)ccc2o1")
"> 5.00"
>>> experimental_result("CCOC(=O)N1CC=C(c2cnc3ccc(-c4ccc5oc(N)nc5c4)nc3n2)CC1")
"> 5.00"
>>> experimental_result("Nc1nc2cc(-c3ccc4ncc(N5CC(N6C7CCC6COC7)C5)nc4n3)ccc2o1")
"< 5.00"
>>> experimental_result("Nc1nc2cc(-c3ccc4ncc(N5C6CCC5COC6)cc4n3)ccc2o1")
"> 5.00"
>>> experimental_result("Nc1nc2cc(-c3ccc4ncc(N5CC(N6CC7CCC(C6)O7)C5)nc4n3)ccc2o1")
"< 5.00"

Q: Fill blank: measured pIC50 of the compound "Nc1nc2cc(-c3ccc4ncc(N5CCC(O)CC5)cc4n3)ccc2o1" is ____.
A: > 5.00

###

# TARGET ENTITY: PI3K α (Homo sapiens)
# MEASUREMENT PROTOCOL: PI 3-Kinase (human) HTRF assay, PI3K α
# ASSAY CONTEXT: read-out: PI3K α IC50; in vitro
MEASURED ATTRIBUTE: IC50

>>> experimental_result("O=C(c1cnc2ccc(-c3ccc(Cl)c(NS(=O)(=O)c4ccc(F)cc4F)c3)cn12)N1CCOCC1")
"< 1 µM"
>>> experimental_result("Cc1cc(-c2ccc3nc(N)oc3c2)cn2c(-c3ccncc3)nnc12")
"> 10 µM"

Q: So what IC50 did "[2H]C1([2H])OC([2H])([2H])C([2H])([2H])N(C(=O)c2cnc3ccc(-c4ccc5oc(N)nc5c4)cn23)C1([2H])[2H]" get with PI3K α (Homo sapiens)?
A: < 1 µM

Q: Can you look up IC50 on PI3K α (Homo sapiens) for "Cn1ncc2c(-c3ccc4ncc(C(=O)N5CCOCC5)n4c3)cncc21" ?
A: < 10 µM

###

# TARGET ENTITY: PI3K δ (Homo sapiens)
# Sequence (O00329 whole entry): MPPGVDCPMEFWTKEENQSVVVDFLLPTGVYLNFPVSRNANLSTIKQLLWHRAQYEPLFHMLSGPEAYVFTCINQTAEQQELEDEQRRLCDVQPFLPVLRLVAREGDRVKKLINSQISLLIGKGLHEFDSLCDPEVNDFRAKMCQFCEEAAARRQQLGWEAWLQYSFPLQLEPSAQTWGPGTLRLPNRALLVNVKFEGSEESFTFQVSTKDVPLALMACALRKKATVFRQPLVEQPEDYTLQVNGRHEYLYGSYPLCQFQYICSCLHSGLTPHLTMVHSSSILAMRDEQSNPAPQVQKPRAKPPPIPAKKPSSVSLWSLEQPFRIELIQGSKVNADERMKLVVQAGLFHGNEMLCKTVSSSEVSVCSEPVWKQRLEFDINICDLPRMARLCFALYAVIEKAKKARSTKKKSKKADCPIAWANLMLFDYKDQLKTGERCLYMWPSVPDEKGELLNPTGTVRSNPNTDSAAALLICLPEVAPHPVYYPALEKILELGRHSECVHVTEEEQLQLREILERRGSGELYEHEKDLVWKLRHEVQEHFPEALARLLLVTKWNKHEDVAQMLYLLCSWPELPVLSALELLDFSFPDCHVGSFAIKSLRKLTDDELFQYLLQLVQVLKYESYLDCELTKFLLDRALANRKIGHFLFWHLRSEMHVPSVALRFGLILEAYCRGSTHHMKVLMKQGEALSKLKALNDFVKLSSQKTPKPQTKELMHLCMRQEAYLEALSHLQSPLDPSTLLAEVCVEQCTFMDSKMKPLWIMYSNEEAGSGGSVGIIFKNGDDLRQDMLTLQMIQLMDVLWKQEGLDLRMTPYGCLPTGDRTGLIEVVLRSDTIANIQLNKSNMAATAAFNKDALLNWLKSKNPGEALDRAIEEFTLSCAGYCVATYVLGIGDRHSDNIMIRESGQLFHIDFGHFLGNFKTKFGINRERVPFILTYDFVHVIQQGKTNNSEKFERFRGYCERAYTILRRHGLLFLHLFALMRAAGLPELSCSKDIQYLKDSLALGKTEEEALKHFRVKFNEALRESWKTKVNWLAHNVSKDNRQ
# Sequence (P27986 whole entry partner): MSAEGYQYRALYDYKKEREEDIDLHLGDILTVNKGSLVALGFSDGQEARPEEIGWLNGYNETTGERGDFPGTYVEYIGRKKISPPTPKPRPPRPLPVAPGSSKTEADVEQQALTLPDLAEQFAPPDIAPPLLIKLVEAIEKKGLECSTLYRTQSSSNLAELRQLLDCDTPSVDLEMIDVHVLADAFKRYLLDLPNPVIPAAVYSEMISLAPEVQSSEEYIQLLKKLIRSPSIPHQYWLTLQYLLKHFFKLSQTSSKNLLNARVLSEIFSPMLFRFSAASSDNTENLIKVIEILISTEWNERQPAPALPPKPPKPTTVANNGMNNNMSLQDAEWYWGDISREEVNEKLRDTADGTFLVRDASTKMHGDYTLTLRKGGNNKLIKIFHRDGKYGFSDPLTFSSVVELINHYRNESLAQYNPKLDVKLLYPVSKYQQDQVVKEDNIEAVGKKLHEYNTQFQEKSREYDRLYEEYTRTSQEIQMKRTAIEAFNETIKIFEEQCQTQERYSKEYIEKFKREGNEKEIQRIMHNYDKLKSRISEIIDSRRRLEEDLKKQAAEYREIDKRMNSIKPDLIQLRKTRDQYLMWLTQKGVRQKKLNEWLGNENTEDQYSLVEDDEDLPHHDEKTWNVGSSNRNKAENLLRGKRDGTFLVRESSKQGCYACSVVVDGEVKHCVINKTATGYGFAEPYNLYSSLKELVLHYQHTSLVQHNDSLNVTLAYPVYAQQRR
# MEASUREMENT PROTOCOL: PI 3-Kinase (human) HTRF assay, PI3K δ
# ASSAY CONTEXT: read-out: PI3K δ IC50; Table 2
MEASURED ATTRIBUTE: IC50

>>> experimental_result("CC(C)N1CCC(n2nc(-c3cc4cccc(O)c4[nH]3)c3c(N)ncnc32)CC1 [Compound 64]")
"100 to 500 nM"
>>> experimental_result("Nc1ncnc2c1c(-c1cc3cccc(O)c3[nH]1)nn2C1CCN(C(=O)C2CC2)CC1 [Compound 41]")
"> 500 nM"
>>> experimental_result("Nc1ncnc2c1c(-c1cc3cc(O)ccc3[nH]1)nn2C1CCN(C(=O)C2CC2)CC1 [Compound 31]")
"100 to 500 nM"

Q: May I ask what IC50 has been recorded for Nc1ncnc2c1c(-c1cc3cccc(Cl)c3[nH]1)nn2C1CCOCC1 [Compound 51] ?
A: 100 to 500 nM

###

# TARGET ENTITY: PI3K β (Homo sapiens)
# MEASUREMENT PROTOCOL: PI 3-Kinase (human) HTRF assay, PI3K β
# ASSAY CONTEXT: read-out: PI3K β IC50
pIC50: −log10 of the molar value.
MEASURED ATTRIBUTE: pIC50

Q: Hello, I am looking for reported pIC50 with PI3K β (Homo sapiens) for Nc1nc2cc(-c3ccc4ncc(NC5CCC(O)CC5)nc4c3)ccc2o1 (stereo not shown) [Compound 128] . Could you help?
A: > 5.00

Q: // fetch PI3K β (Homo sapiens) pIC50 for CC(C)[C@@H](N)C(=O)N1CCN(c2cnc3ccc(-c4ccc5oc(N)nc5c4)cc3n2)CC1 [Compound 270]
A: > 6.00

Q: So what pIC50 did Nc1nc2cc(-c3ccc4ncc(C(=O)N5CCN(CC6CC6)CC5)n4c3)ccc2o1 [Compound 161] get with PI3K β (Homo sapiens)?
A: > 5.00

Q: What value of pIC50 on PI3K β (Homo sapiens) does CC(=O)Nc1nc2ccc(-c3nc(N4CCOCC4)c4sc(CN5CCN(S(C)(=O)=O)CC5)cc4n3)cc2s1 [Compound 130] have?
A: < 5.00

Q: What value of pIC50 on PI3K β (Homo sapiens) does C[C@H]1CN(c2cnc3ccc(-c4ccc5oc(N)nc5c4)cc3n2)CCN1C [Compound 332] have?
A: > 7.00

###

# TARGET ENTITY: mTOR (Homo sapiens, UniProt P42345)
# Construct: purchased Invitrogen
# MEASUREMENT PROTOCOL: mTOR kinase inhibition assay (radiometric or LanthaScreen TR-FRET)
# Assay type: biochemical
# ASSAY CONTEXT: Table 1; read-out: mTOR IC50
pIC50: −log10 of the molar value.
MEASURED ATTRIBUTE: pIC50

Q: // fetch mTOR (Homo sapiens, UniProt P42345) pIC50 for C=Cc1oc(NC(C)=O)nc1/C=C/c1nn(C)c2ncnc(N)c12 [Compound 2]
A: > 7.00

###

# TARGET ENTITY: PI3K γ (Homo sapiens)
# Sequence (P48736 whole entry): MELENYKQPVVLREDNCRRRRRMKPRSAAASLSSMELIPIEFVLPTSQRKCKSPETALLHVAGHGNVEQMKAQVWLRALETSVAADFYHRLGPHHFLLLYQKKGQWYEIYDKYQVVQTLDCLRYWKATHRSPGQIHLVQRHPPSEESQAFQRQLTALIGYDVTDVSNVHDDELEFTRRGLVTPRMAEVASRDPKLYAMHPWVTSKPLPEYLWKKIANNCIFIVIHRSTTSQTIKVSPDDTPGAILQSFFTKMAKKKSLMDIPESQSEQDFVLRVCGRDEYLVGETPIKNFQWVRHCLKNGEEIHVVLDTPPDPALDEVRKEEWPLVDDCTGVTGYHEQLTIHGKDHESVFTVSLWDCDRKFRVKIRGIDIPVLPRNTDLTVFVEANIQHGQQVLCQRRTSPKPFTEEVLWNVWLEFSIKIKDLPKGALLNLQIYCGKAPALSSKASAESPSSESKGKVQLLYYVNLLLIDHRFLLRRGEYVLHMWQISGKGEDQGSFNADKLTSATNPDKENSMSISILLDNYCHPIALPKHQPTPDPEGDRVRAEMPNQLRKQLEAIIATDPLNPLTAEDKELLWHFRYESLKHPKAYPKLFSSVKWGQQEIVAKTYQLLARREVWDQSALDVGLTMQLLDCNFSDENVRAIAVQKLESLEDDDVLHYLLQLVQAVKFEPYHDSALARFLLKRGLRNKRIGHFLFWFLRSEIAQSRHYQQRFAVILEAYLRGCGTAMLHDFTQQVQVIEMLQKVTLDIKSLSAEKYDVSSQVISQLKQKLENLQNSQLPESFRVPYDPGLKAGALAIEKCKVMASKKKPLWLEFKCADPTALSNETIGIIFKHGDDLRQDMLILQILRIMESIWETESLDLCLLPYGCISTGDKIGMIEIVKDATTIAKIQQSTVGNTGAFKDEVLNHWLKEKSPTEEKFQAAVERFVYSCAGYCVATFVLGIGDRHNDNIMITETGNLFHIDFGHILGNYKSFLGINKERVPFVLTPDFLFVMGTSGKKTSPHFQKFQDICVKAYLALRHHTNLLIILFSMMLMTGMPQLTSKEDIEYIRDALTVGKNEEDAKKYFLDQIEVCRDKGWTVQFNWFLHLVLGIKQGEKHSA
# MEASUREMENT PROTOCOL: PI 3-Kinase (human) HTRF assay, PI3K γ
# ASSAY CONTEXT: read-out: PI3K γ IC50
MEASURED ATTRIBUTE: IC50

>>> experimental_result("CC(C)n1nc(-c2cc3c(Cl)ccc(O)c3[nH]2)c2c(N)ncnc21")
"> 500 nM"
>>> experimental_result("Nc1ncnc2c1c(-c1cc3cc(O)ccc3[nH]1)nn2Cc1cccnc1")
"> 500 nM"
>>> experimental_result("Nc1nc2cc(-c3cnc4ccc(N5C6CCC5COC6)nc4c3)ccc2o1")
"< 10000 nM"
>>> experimental_result("Nc1ncnc2c1c(-c1cc3cc(O)ccc3[nH]1)nn2CC(=O)N1CCOCC1")
"> 500 nM"
>>> experimental_result("CN1CCC(Oc2ncnc3ccc(-c4ccc5oc(N)nc5c4)cc23)CC1")
"< 100 nM"
>>> experimental_result("CC(N)C(=O)N1CCN(c2cnc3ccc(-c4ccc5oc(N)nc5c4)cc3n2)CC1 (stereo not drawn)")
"< 10000 nM"
>>> experimental_result("Cc1ccc(NC(=O)c2cnc3ccc(-c4ccc5oc(N)nc5c4)cn23)cn1")
"< 100 nM"
>>> experimental_result("CC(=O)Nc1nc2ccc(-c3ccc4oc(N)nc4c3)cc2s1")
"< 100 nM"

Would you kindly look at the next entry?
Q: Please report the recorded IC50 for Nc1nc2cc(-c3ccc4ncc(NC5CCC(O)CC5)nc4c3)ccc2o1 (stereo not drawn) .
A: < 100 nM

###

Recorded IC50 values for a group of compounds are listed next.
# TARGET ENTITY: PI3K α (Homo sapiens, UniProt P42336)
# Sequence (P42336 whole entry): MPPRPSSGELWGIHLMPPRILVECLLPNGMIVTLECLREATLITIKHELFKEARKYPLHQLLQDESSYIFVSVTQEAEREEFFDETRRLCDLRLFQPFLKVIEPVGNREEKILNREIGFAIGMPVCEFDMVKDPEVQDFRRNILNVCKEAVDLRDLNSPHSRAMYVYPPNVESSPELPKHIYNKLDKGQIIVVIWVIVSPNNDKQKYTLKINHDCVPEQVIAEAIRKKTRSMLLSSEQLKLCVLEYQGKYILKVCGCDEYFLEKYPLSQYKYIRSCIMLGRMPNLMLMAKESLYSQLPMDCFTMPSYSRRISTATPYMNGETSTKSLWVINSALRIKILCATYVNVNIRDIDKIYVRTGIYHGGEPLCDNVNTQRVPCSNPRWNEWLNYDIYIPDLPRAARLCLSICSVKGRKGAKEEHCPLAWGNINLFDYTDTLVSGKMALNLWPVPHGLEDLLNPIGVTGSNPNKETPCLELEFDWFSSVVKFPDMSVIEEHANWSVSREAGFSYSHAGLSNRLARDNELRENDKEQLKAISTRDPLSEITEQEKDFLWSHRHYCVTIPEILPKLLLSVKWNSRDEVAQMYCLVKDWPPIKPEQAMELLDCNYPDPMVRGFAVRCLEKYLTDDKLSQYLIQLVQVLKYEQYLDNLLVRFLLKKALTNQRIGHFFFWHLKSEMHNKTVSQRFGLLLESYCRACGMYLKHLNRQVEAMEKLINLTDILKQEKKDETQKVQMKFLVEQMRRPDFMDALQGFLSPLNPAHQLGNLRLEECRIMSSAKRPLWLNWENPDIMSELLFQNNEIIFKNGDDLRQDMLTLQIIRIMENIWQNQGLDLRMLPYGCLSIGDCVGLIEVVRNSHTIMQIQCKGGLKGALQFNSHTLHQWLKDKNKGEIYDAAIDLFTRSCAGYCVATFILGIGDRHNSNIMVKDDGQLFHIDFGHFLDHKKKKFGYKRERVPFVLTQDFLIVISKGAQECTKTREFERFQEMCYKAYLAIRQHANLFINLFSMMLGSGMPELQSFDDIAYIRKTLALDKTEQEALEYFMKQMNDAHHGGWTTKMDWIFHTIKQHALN
# Sequence (P27986 whole entry partner): as the sequence (P27986 whole entry partner) above
# MEASUREMENT PROTOCOL: PI 3-Kinase (human) HTRF assay, PI3K α
# ASSAY CONTEXT: read-out: PI3K α IC50; Table 4

Reference set, count: 3
>>> experimental_result("Nc1nc2cc(-c3ccc4ncc(N5C6CCC5COC6)nc4n3)ccc2o1 [Compound 570]")
"< 100 nM"
>>> experimental_result("Nc1nc2cc(-c3ccc4ncc(N5C6CCC5COC6)cc4n3)ccc2o1 [Compound 574]")
"< 100 nM"
>>> experimental_result("CN1CC2CN(c3cnc4ccc(-c5ccc6oc(N)nc6c5)nc4c3)CC2C1 (stereo not shown) [Compound 630]")
"< 100 nM"

Next up:
Q: Please tell me: IC50 of CC(C)(N)C(=O)N1CCN(c2ccc3ncc(-c4ccc5oc(N)nc5c4)cc3n2)CC1 [Compound 633] , system PI3K α (Homo sapiens, UniProt P42336)?
A: < 10000 nM

###

# TARGET ENTITY: mTOR (Homo sapiens)
# Construct: purchased Invitrogen
# MEASUREMENT PROTOCOL: mTOR kinase inhibition assay (radiometric or LanthaScreen TR-FRET)
# Type: biochemical
# ASSAY CONTEXT: Table 2; read-out: mTORC IC50
pIC50: −log10 of the molar value.
MEASURED ATTRIBUTE: pIC50

>>> experimental_result("Nc1ncnc2c1c(-c1cc3cc(O)cc(Cl)c3[nH]1)nn2C1CCOCC1")
"> 8.30"
>>> experimental_result("CC(C)N1CCC(n2nc(-c3cc4cc(O)cc(Cl)c4[nH]3)c3c(N)ncnc32)CC1")
"< 6.30"
>>> experimental_result("COc1ccc(Cl)c2cc(-c3nn(C4CCOCC4)c4ncnc(N)c34)[nH]c12")
"> 7.60"
>>> experimental_result("COCCn1nc(-c2cc3cc(O)ccc3[nH]2)c2c(N)ncnc21")
"> 7.00"
>>> experimental_result("Nc1ncnc2c1c(-c1cc3ccc(O)cc3[nH]1)nn2C1CCOCC1")
"> 7.00"

Q: // fetch mTOR (Homo sapiens) pIC50 for "Nc1ncnc2c1c(-c1cc3cccc(O)c3[nH]1)nn2C1CCOCC1"
A: > 8.30

Q: Lab note: need pIC50 with mTOR (Homo sapiens) for entry "COc1cc(Cl)c2[nH]c(-c3nn(C4CCOCC4)c4ncnc(N)c34)cc2c1" , please look it up.
A: < 6.30

Q: Kindly state the measured pIC50 obtained for "CC(C)n1nc(-c2cc3cc(O)c(Cl)cc3[nH]2)c2c(N)ncnc21" with mTOR (Homo sapiens).
A: > 6.30

Q: What measured pIC50 is associated with "Nc1ncnc2c1c(-c1cc3cc(O)ccc3[nH]1)nn2CCN1CCOCC1" on mTOR (Homo sapiens)?
A: > 6.30
